System: DU-145
MEASUREMENT NOTES: NCI tumour cell line growth inhibition, 48 h
The source made the active and inactive calls. Cut-off read from the data, not from the text of the source: active = GI50 up to about 1.1 µM and inactive = higher.
Kindly state GI50 for each of the entries shown.

Ask: Could you please provide reported GI50 for O=C(NC(Nc1ccc(F)c(Cl)c1)(C(F)(F)F)C(F)(F)F)OCc1ccccc1 ? Thanks!
Result: 24.4 µM (inactive)

Ask: Please indicate GI50 recorded for C=C1CCC2C(C)(CO)C(O)CCC2(C)C1C/C=C1\C(=O)OCC1O (centres undefined)
Result: 38.8 µM (inactive)

Ask: Provide one value: measured GI50 of COc1cc(/C=C2\C[C@H]3[C@@H]4CC=C5C=C(N6CCCC6)CC[C@]5(C)[C@H]4CC[C@]3(C)C2=O)cc(OC)c1OC
Result: 3.44 µM (inactive)

Ask: Look up and report measured GI50 for this entry: O/N=C1\CCc2nonc2\C1=N/Nc1ccccc1
Result: > 100 µM (inactive)

* * *

Tested on: NCI-H226
MEASUREMENT NOTES: NCI tumour cell line growth inhibition, 48 h
Active and inactive are the calls of the source. No stated cut-off is given here; in the data, active = GI50 up to about 1.1 µM and inactive = higher.
ENDPOINT LABEL: GI50

Ask: Provide measured GI50 value, entry: CC(C)=CCC(OC(=O)C=C(C)C)c1cc(O)c2c(c1O)C(=O)C=CC2=O (stereo not given)
Result: 2.97 µM (inactive)

Ask: Provide only the value of recorded GI50 for O=C(O)[C@H]1NC[C@@H]2ON=C(Br)[C@@H]21
Result: > 100 µM (inactive)

Ask: Please supply the value of reported GI50 for the item COc1ccccc1N1C(=O)CS(=O)(=O)C1c1cccc(Oc2ccccc2)c1 (stereo not given)
Result: 14.6 µM (inactive)

Ask: Give recorded GI50. CC1(C)CC(=O)c2c(nc(SSc3nc4c(c(-c5ccccc5)c3C#N)C(=O)CC(C)(C)C4)c(C#N)c2-c2ccccc2)C1
Result: > 10 µM (inactive)

Ask: Return GI50 (reported value) for this molecule: Cc1nc(N)sc1/N=N/c1cc(Cl)c([N+](=O)[O-])cc1Cl
Result: 14 µM (inactive)

Ask: Provide only the value of recorded GI50 for COCOc1c(C(OCOC)c2cnc(Sc3ccccc3)n2C)ccc(OC)c1OC (stereo not given)
Result: 76.7 µM (inactive)

Ask: In one line, give reported GI50 of the entry O=C(NNC(=O)c1ccncc1)C(=O)Nc1cc(Cl)c(Cl)cc1Cl .
Result: > 100 µM (inactive)

Ask: Supply recorded GI50 for O=C(CC1(O)CCCCC1)OC1CCCC1 here.
Result: > 100 µM (inactive)

Ask: Supply GI50 value. Item: O=C1CN2C(c3ccccc3)=NN(c3ccc([N+](=O)[O-])cc3)C2(c2ccccc2)c2cc(Cl)ccc2N1CC1CC1 (stereo not given)
Result: > 100 µM (inactive)

Ask: Item NC(=O)CC1(O)C=CC(=O)C=C1 : provide GI50
Result: > 100 µM (inactive)

* * *

Tested on: NCI-H226
MEASUREMENT NOTES: NCI tumour cell line growth inhibition, 48 h
Activity calls are given as the source filed them. Rule as the data show it: active = GI50 up to about 1.1 µM and inactive = higher.
// one of active, inactive, no free text

Ask: Write down the call the test reported for this molecule. Item: N#C/C(C(=O)Nc1ccccc1)=C(/N)N1CCCC1
Result: inactive

Ask: Fill in: this test's call for COc1ccc(C(CC(=O)C(C)(C)CN2CCCCC2)SCCS(=O)(=O)O)cc1 (stereo not given) is ___
Result: inactive

Ask: Short answer needed: outcome of this test for O/N=C1/Nc2ccccc2C(=S)N2CSCC12 (stereo not given) ?
Result: inactive

Ask: Give the logged outcome of this assay for the following molecule: O=C1CC(=O)NC(NN2C(=O)CSC2c2ccc(Cl)cc2)=N1 (stereo not given)
Result: inactive

Ask: Check the results log: what was the call for Oc1c(C(O)(c2ccccc2)c2ccc3ccccc3c2O)ccc2ccccc12 ?
Result: inactive

Ask: Test call, this molecule: O=C(N/N=C\c1ccc([N+](=O)[O-])cc1)c1ccccc1Nc1ccccc1C(=O)N/N=C/c1ccc([N+](=O)[O-])cc1
Result: inactive

Ask: Assay result, entry CN1CCN(CN2C(=O)C3C4C=CC(C3C2=O)C2C(=O)N(CN3CCN(C)CC3)C(=O)C42)CC1 (stereo not given) — outcome?
Result: inactive

Ask: Can you look up the reported call for Cc1ccc2nc3c(C)cc(=O)cc-3sc2c1 for me?
Result: inactive

Ask: Name the outcome recorded for Nc1ccc2c(c1)N(C(=O)CCCC(=O)N1CC(CCl)c3ccc(N)cc31)CC2CCl (stereo not given) in the assay.
Result: active

Ask: Short answer needed: outcome of this test for COC(=O)C1CCC(=O)N1C(c1ccccc1)c1ccc(OC)c(OC)c1 (stereo not given) ?
Result: inactive
